Catalogue of Relative potency values
- Tested on: Rattus norvegicus
- test-details: Tested in vivo for the concentration required to produce relative potency of the incorporation of [14C]acetate into cholesterol (relative to compactin=1)
- Format: functional
assay-readout: Relative potency

> print(dat)
                                    molecule     assay.readout  assay.result
 1  COc1ccc(-c2sc(C(C)C)c(/C=C/[C@@H](O)C[C@@H](O)CC(=O)[O-])c2-c2ccc(F)cc2)cc1.[Na+]  Relative potency            27
 2  Cc1sc(C(C)C)c(/C=C/[C@@H](O)C[C@@H](O)CC(=O)[O-])c1-c1ccccc1.[Na+]  Relative potency            21
 3  CC[C@H](C)C(=O)O[C@H]1C[C@@H](C)C=C2C=C[C@H](C)[C@H](CC[C@@H]3C[C@@H](O)CC(=O)O3)[C@H]21 [LOVASTATIN]  Relative potency            11
 4  CC(C)=Cc1sc(C(C)C)c(/C=C/[C@@H](O)C[C@@H](O)CC(=O)[O-])c1-c1ccc(F)cc1.[Na+]  Relative potency            37
 5  CC(C)c1sc(C(C)C)c(-c2ccc(F)cc2)c1/C=C/[C@@H](O)C[C@@H](O)CC(=O)[O-].[Na+]  Relative potency            50
 6  CC(C)c1sc(-c2ccccc2)c(-c2ccccc2)c1/C=C/[C@@H](O)C[C@@H](O)CC(=O)[O-].[Na+]  Relative potency            24
 7  CC(C)c1sc(-c2ccc(Cl)cc2)c(-c2ccc(F)cc2)c1/C=C/[C@@H](O)C[C@@H](O)CC(=O)[O-].[Na+]  Relative potency           6.3
 8  Cc1ccc(-c2sc(C(C)C)c(/C=C/[C@@H](O)C[C@@H](O)CC(=O)[O-])c2-c2ccc(F)cc2)cc1.[Na+]  Relative potency            13
 9  CC(C)c1sc(-c2ccccc2)c(C2CCCCC2)c1/C=C/[C@@H](O)C[C@@H](O)CC(=O)[O-].[Na+]  Relative potency           7.1
10  CC(C)c1sc(-c2ccccc2)c(-c2ccc(F)cc2)c1/C=C/[C@@H](O)C[C@@H](O)CC(=O)[O-].[Na+]  Relative potency            37
11  CC[C@H](C)C(=O)O[C@H]1CCC=C2C=C[C@H](C)[C@H](CC[C@@H]3C[C@@H](O)CC(=O)O3)[C@H]21 [MEVASTATIN]  Relative potency             1

----------
- test-target: 3-hydroxy-3-methylglutaryl-coenzyme A reductase (Rattus norvegicus) (UniProt P51639)
- Sequence (P51639 whole entry): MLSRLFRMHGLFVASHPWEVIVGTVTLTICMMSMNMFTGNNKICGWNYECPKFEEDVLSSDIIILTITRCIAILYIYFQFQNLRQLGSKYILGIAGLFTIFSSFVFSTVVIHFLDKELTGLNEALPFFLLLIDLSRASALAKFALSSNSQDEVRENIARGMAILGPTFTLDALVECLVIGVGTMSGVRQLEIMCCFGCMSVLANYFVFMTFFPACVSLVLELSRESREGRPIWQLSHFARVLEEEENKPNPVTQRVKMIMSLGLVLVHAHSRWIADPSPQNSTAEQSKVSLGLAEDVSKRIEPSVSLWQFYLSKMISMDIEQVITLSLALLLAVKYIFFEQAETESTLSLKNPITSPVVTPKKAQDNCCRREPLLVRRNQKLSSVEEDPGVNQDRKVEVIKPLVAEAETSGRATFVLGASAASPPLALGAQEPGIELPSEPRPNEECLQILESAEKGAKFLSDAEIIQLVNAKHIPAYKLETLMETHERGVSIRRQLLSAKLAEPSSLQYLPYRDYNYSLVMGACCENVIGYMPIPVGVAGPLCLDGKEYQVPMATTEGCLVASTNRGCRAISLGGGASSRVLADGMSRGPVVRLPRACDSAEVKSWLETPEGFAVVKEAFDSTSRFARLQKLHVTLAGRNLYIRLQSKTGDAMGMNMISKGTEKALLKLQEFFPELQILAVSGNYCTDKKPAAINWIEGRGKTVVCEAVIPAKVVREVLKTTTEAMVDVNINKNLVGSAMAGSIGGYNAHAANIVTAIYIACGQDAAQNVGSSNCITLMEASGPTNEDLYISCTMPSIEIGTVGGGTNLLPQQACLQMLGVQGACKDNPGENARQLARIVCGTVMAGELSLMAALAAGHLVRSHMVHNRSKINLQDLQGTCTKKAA
- test-details: Tested in vitro for relative potency against HMG-CoA reductase in a microsomal preparation (relative to compactin =1)
- Format: microsomes
- experimental-parameters: Microsome
Tag: true if measured Relative potency is not below 20, false if it is.

> print(dat)
                                query.smiles                               test.target  assigned.class
 1  CC(C)c1sc(C(C)C)c(-c2ccc(F)cc2)c1/C=C/[C@@H](O)C[C@@H](O)CC(=O)[O-].[Na+]  3-hydroxy-3-methylglutaryl-coenzyme A reductase (Rattus norvegicus) (UniProt P51639)            true
 2  CC(C)c1sc(-c2ccccc2)c(C2CCCCC2)c1/C=C/[C@@H](O)C[C@@H](O)CC(=O)[O-].[Na+]  3-hydroxy-3-methylglutaryl-coenzyme A reductase (Rattus norvegicus) (UniProt P51639)           false
 3  CC(C)c1sc(-c2ccccc2)c(-c2ccccc2)c1/C=C/[C@@H](O)C[C@@H](O)CC(=O)[O-].[Na+]  3-hydroxy-3-methylglutaryl-coenzyme A reductase (Rattus norvegicus) (UniProt P51639)            true
 4  CC(C)c1sc(C2CCCC2)c(-c2ccc(F)cc2)c1/C=C/[C@@H](O)C[C@@H](O)CC(=O)O  3-hydroxy-3-methylglutaryl-coenzyme A reductase (Rattus norvegicus) (UniProt P51639)           false
 5  CC(C)c1sc(-c2ccccc2)c(C2CCCC2)c1/C=C/[C@@H](O)C[C@@H](O)CC(=O)O  3-hydroxy-3-methylglutaryl-coenzyme A reductase (Rattus norvegicus) (UniProt P51639)           false
 6  CC[C@H](C)C(=O)O[C@H]1C[C@@H](C)C=C2C=C[C@H](C)[C@H](CC[C@@H]3C[C@@H](O)CC(=O)O3)[C@H]21  3-hydroxy-3-methylglutaryl-coenzyme A reductase (Rattus norvegicus) (UniProt P51639)           false
 7  COCCOCc1sc(C(C)C)c(/C=C/[C@@H](O)C[C@@H](O)CC(=O)O)c1-c1ccc(F)cc1  3-hydroxy-3-methylglutaryl-coenzyme A reductase (Rattus norvegicus) (UniProt P51639)           false
 8  CC(C)=Cc1sc(C(C)C)c(/C=C/[C@@H](O)C[C@@H](O)CC(=O)[O-])c1-c1ccc(F)cc1.[Na+]  3-hydroxy-3-methylglutaryl-coenzyme A reductase (Rattus norvegicus) (UniProt P51639)            true
 9  CC(C)c1sc(-c2ccccc2)c(-c2ccc(-c3ccccc3)cc2)c1/C=C/[C@@H](O)C[C@@H](O)CC(=O)O  3-hydroxy-3-methylglutaryl-coenzyme A reductase (Rattus norvegicus) (UniProt P51639)           false
10  Cc1ccc(-c2sc(C(C)C)c(/C=C/[C@@H](O)C[C@@H](O)CC(=O)[O-])c2-c2ccc(F)cc2)cc1.[Na+]  3-hydroxy-3-methylglutaryl-coenzyme A reductase (Rattus norvegicus) (UniProt P51639)            true
11  Cc1sc(C(C)C)c(/C=C/[C@@H](O)C[C@@H](O)CC(=O)[O-])c1-c1ccccc1.[Na+]  3-hydroxy-3-methylglutaryl-coenzyme A reductase (Rattus norvegicus) (UniProt P51639)           false
12  COc1ccc(-c2sc(C(C)C)c(/C=C/[C@@H](O)C[C@@H](O)CC(=O)[O-])c2-c2ccc(F)cc2)cc1.[Na+]  3-hydroxy-3-methylglutaryl-coenzyme A reductase (Rattus norvegicus) (UniProt P51639)            true
13  CC(C)c1sc(-c2ccccc2)c(-c2cccc(F)c2)c1/C=C/[C@@H](O)C[C@@H](O)CC(=O)O  3-hydroxy-3-methylglutaryl-coenzyme A reductase (Rattus norvegicus) (UniProt P51639)            true
14  CC(C)c1sc(CO)c(-c2ccc(F)cc2)c1/C=C/[C@@H](O)C[C@@H](O)CC(=O)O  3-hydroxy-3-methylglutaryl-coenzyme A reductase (Rattus norvegicus) (UniProt P51639)           false
15  CCCCCCCCc1c(-c2ccccc2)sc(C(C)C)c1/C=C/[C@@H](O)C[C@@H](O)CC(=O)O  3-hydroxy-3-methylglutaryl-coenzyme A reductase (Rattus norvegicus) (UniProt P51639)           false
16  CC(C)c1sc(-c2ccccc2)c(-c2ccccc2F)c1/C=C/[C@@H](O)C[C@@H](O)CC(=O)O  3-hydroxy-3-methylglutaryl-coenzyme A reductase (Rattus norvegicus) (UniProt P51639)           false
